Value source: ChEMBL document CHEMBL3885861

# Species: Rattus norvegicus
# experiment description: Open TG-GATES - Regimen: Single
# Format: toxicity, organism-based, Sprague-Dawley
# Parameters: regimen Single, gender Male, age 6 weeks
# test context: in vivo, po, 10 mg/kg, 6 h, tissue Plasma, route gavage, dose level Low
Recorded RALB for the following compounds
experimental readout: RALB

INSERT INTO measurements (compound, experimental_readout, result) VALUES
  ('CN(C)CCCN1c2ccccc2CCc2ccccc21', 'RALB', '2.5 g/dL'),
  ('CC1=C(/C=C/C(C)=C/C=C/C(C)=C/CO)C(C)(C)CCC1', 'RALB', '3.1 g/dL'),
  ('CN(C)CCCN1c2ccccc2CCc2ccc(Cl)cc21', 'RALB', '2.5 g/dL'),
  ('CN(C)CCN(Cc1cccs1)c1ccccn1', 'RALB', '2.9 g/dL'),
  ('CC(C)OC(=O)C(C)(C)Oc1ccc(C(=O)c2ccc(Cl)cc2)cc1 [FENOFIBRATE]', 'RALB', '2.5 g/dL');
